B1: ATE1 (parent)
chain: DYFPSEDFYRCGYCKNESGSRSNG

- Variants of: B1
- assay_remarks: protein stability index of a GFP-peptide fusion (GPS, HEK-293T) (PSI 1-6); higher = more stable;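 further: lentivirally expressed fusions sorted by FACS into six bins by GFP to DsRed ratio, PSI derived from sequencing read proportions per bin multiplied by bin number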
- setup_conditions: c terminus: a fixed tail appended
experimental_readout: protein stability index
Answers are plain numbers.

# monomer_sequence, reported_result
rows = [
    ("DYFPSEDFYRCGYCKYESGSRSNG [N16Y]", 2.43),
    ("DSFPSEDFYRCGYCKNESGSRSNG [Y2S]", 2.44),
    ("DYFPSEDFYRCGYCKNESGDRSNG [S20D]", 2.25),
    ("DYFPSEDFYRCGYCKNHSGSRSNG [E17H]", 2.14),
    ("DYFPSEDFYRCGYCKNEQGSRSNG [S18Q]", 2.37),
]

For each of the variants below, state protein stability index.
1. DYFFSEDFYRCGYCKNESGSRSNG [P4F]
2. DYFPSEDFYRCGYCKNGSGSRSNG [E17G]

1. 1.43
2. 1.96

Please look up its protein stability index: DYFPSEDFYRCGYCKNESWSRSNG [G19W]
3.29
